tgt: HK1 (Homo sapiens)
Sequence (P19367 1-917): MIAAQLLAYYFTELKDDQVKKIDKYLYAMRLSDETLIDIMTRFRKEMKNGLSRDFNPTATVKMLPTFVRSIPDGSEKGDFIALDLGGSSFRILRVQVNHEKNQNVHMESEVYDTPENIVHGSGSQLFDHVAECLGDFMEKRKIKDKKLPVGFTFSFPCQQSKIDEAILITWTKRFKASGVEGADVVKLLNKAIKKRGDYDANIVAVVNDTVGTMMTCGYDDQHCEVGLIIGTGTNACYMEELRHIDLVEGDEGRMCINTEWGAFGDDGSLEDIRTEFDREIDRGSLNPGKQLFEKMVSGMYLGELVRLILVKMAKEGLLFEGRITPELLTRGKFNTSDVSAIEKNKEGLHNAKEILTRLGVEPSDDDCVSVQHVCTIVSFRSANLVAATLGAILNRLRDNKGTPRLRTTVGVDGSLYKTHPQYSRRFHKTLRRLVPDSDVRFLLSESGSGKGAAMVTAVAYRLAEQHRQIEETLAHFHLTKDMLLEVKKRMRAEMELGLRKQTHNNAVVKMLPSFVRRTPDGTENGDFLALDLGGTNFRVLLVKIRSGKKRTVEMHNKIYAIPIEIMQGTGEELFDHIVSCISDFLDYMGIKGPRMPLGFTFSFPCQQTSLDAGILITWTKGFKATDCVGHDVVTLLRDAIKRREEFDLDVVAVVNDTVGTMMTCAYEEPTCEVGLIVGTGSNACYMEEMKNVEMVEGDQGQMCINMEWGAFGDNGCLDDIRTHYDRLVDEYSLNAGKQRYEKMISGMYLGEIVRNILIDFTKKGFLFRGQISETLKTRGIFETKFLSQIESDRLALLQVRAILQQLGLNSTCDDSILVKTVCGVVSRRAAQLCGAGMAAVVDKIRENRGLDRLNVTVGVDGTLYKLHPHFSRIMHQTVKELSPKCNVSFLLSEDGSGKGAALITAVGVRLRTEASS
assay-explanation: In vitro enzyme inhibition assay (G6P-DH coupled, NADH 340 nm)
assay-conditions: recombinant HK1
reported-metric: IC50 (µM)
Numbers only, in µM.

# get_value(readout='IC50', item= NC(CO)C(=O)NNCc1ccc(O)c(O)c1O (stereo not shown) [Benz, Benserazide] )
25.1

###

tgt: HK4 (Homo sapiens)
Sequence (P35557 whole entry): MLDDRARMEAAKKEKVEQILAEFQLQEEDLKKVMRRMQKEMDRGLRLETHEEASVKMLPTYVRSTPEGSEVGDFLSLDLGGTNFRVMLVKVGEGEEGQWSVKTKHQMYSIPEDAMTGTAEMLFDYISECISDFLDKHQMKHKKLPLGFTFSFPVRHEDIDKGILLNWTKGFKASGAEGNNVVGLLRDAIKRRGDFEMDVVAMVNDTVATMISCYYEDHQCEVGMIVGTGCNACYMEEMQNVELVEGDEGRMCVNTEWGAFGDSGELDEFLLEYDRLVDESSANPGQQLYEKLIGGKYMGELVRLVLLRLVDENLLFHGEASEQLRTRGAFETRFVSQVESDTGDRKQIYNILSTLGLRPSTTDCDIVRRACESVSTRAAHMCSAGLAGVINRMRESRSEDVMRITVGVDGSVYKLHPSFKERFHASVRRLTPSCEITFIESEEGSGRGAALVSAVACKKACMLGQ
assay-explanation: In vitro enzyme inhibition assay (G6P-DH coupled, NADH 340 nm)
assay-conditions: recombinant HK4
reported-metric: IC50 (µM)
Answers are plain numbers, in µM.

IC50 for NC(CO)C(=O)NNCc1ccc(O)c(O)c1O (stereo not shown) [Benz, Benserazide] ?
40.5

###

assay-explanation: Cytotoxicity test (CCK-8)
Assay type: cell-based
assay-conditions: human, LO2 normal cells
I'd be grateful if you could share measured IC50 at 48 h for these entries.

{"columns": ["molecule", "test-result"],
 "data": [
  ["CN(C)C(=N)N=C(N)N", "> 1000 µM"]
]}

Could you now consider this next molecule?
Fill blank: measured IC50 at 48 h of the molecule NC(CO)C(=O)NNCc1ccc(O)c(O)c1O (centres unmarked) [Benz, Benserazide] is ____.
> 500 µM

###

tgt: HK2 (Homo sapiens)
Construct: made in house; host or cells: E. coli BL21 (DE3)
Sequence (P52789 1-917): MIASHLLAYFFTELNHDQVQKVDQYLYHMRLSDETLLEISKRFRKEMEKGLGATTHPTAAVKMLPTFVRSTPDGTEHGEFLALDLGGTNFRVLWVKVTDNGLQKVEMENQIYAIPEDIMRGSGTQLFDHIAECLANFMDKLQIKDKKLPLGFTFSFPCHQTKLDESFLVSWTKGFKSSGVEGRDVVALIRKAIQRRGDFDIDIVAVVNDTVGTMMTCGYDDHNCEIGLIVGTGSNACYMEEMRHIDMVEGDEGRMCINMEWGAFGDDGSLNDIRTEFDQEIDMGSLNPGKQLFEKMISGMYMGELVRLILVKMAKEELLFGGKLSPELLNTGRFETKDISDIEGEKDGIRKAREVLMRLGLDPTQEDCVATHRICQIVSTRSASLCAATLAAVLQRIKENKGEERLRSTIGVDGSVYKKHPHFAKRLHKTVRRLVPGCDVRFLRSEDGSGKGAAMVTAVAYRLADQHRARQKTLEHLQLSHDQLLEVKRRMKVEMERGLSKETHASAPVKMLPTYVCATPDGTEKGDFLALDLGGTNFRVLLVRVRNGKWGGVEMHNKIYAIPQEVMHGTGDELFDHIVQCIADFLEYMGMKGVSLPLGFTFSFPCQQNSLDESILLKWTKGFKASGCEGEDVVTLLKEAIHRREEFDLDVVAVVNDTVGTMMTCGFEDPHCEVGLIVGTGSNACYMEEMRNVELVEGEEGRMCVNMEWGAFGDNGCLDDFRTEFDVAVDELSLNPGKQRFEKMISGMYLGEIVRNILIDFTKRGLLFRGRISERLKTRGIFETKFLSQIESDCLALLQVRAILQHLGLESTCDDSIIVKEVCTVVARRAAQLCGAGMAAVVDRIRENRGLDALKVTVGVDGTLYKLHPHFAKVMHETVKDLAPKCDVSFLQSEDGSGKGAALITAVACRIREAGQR
assay-explanation: In vitro enzyme inhibition assay (G6P-DH coupled, NADH 340 nm)
Type: biochemical
assay-conditions: recombinant HK2; n.i means no enzyme inhibition; read-out: Enzyme IC50
reported-metric: IC50

Some compounds with recorded IC50:
{"columns": ["compound", "tgt", "reported-metric", "test-result"],
 "data": [
  ["NC(CO)C(=O)NNCc1ccc(O)c(O)c1O (stereo not shown) [Benz, Benserazide]", "HK2 (Homo sapiens)", "IC50", "5.52 µM"],
  ["N[C@H]1C(O)O[C@H](CO)[C@@H](O)[C@@H]1O (stereo partly shown)", "HK2 (Homo sapiens)", "IC50", "> 1000 µM"],
  ["O=C(O)c1cc(/N=N/c2ccc(S(=O)(=O)Nc3ccccn3)cc2)ccc1O", "HK2 (Homo sapiens)", "IC50", "> 1000 µM"]
]}

Any idea what its IC50 is? The compound is `O=C1O[C@H]([C@@H](O)CO)C(O)=C1O`
> 1000 µM
